Assay: CCTE_Shafer_MEA_dev_mutual_information_norm: CCTE's Neural Network Formation Assay for Mutual Information Normalization, Shafer Lab (AID 2284091);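 on AC50: mutual information between electrodes summarised as area under curve across four recording days; potency is for a decrease in mutual information relative to DMSO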
Method: CCTE_Shafer_MEA_dev assay is conducted using Axion Biosystems 48 well microelectrode array (MEA) plates and Maestro recording system. Each well of the MEA plate contains a grid of 16 microelectrodes embedded in the culture surface. Electrically active cells, such as neurons, can be cultured over the electrodes, and electrical activity in these cells can be recorded extracellularly. […]
Activity calls are given as the source filed them. How the source made its calls: active means hit-call score of the fitted dose curve at least 0.9, where 1 is the maximum; inactive means score below 0.9.

{"compound": "CN(C)CCCN1c2ccccc2Sc2ccc(Cl)cc21", "AC50": "5.4 µM (active)"}
{"compound": "CC(=O)CC(c1ccccc1)c1c(O)c2ccccc2oc1=O (centres undefined)", "AC50": "inactive"}
{"compound": "OCC(O)CO", "AC50": "inactive"}
{"compound": "O=C1NC(=O)C(c2ccccc2)(c2ccccc2)N1", "AC50": "inactive"}

---

Read-out: HGF (gene 3082)
Assay: LTEA_HepaRG_HGF: Life Technologies and Expression Analysis (LTEA) Assay for Hepatocyte Growth Facto (HGF) using HepaRG (AID 2283505)
Conditions: mRNA level, 48 h; actives raise or lower the signal
Calls of active or inactive are those of the source. The calls were made as follows: active = hit-call score of the fitted dose curve at least 0.9, where 1 is the maximum; inactive = score below 0.9.
Respond with a class label; see t = active, f = inactive

QUERY: # fetch the recorded call for `O=C(O)c1[nH]n(-c2ccc(S(=O)(=O)O)cc2)c(=O)c1N=Nc1ccc(S(=O)(=O)O)cc1` here
RESULT: f

QUERY: # fetch the recorded call for CCC(C)N(C)C(=O)c1cc2ccccc2c(-c2ccccc2Cl)n1 (configuration not stated) here
RESULT: f

QUERY: # fetch the recorded call for `CN(C)CCCN(C)CCCN(C)C` here
RESULT: f

QUERY: # fetch the recorded call for `O=[Si]=O` here
RESULT: f

QUERY: # fetch the recorded call for `CC1(C)C(=O)NC(=O)N1CO` here
RESULT: f

QUERY: # fetch the recorded call for CCCCC(CC)COC(=O)CCCCCCCC(=O)OCC(CC)CCCC (configuration not stated) here
RESULT: f

QUERY: # fetch the recorded call for `O=C1NC(=O)C(c2ccccc2)(c2ccccc2)N1` here
RESULT: f

QUERY: # fetch the recorded call for `CC(=O)O[C@]1(C(C)=O)CC[C@H]2[C@@H]3C=C(Cl)C4=CC(=O)[C@@H]5C[C@@H]5[C@]4(C)[C@H]3CC[C@@]21C` here
RESULT: f

QUERY: # fetch the recorded call for `C=CCc1ccc(OC)c(OC)c1` here
RESULT: f

QUERY: # fetch the recorded call for `CCOCCOCCO` here
RESULT: f

QUERY: # fetch the recorded call for CC(COCC(C)OC(=O)c1ccccc1)OC(=O)c1ccccc1 (configuration not stated) here
RESULT: f

QUERY: # fetch the recorded call for `NC=O` here
RESULT: f

QUERY: # fetch the recorded call for `COC(=O)CCCC(=O)OC` here
RESULT: f

QUERY: # fetch the recorded call for `O=C1c2c(O)cccc2Cc2cccc(O)c21` here
RESULT: f

QUERY: # fetch the recorded call for `CCCCCCCCCCCCCCOS(=O)(=O)O` here
RESULT: f

QUERY: # fetch the recorded call for `O=C(Oc1ccccc1)c1cccc(C(=O)Oc2ccccc2)c1` here
RESULT: f

QUERY: # fetch the recorded call for `Oc1ccccc1O` here
RESULT: f

QUERY: # fetch the recorded call for `CCc1nc(N)nc(N)c1-c1ccc(Cl)cc1` here
RESULT: t

QUERY: # fetch the recorded call for `CCCCCCCCCC[N+](C)(C)[O-]` here
RESULT: f

QUERY: # fetch the recorded call for `c1ccc2occc2c1` here
RESULT: f

QUERY: # fetch the recorded call for `CC(C)(O)c1ccc(CNC(=O)c2cccnc2Oc2ccc(F)cc2)cc1` here
RESULT: f

QUERY: # fetch the recorded call for `CCCCCCC(C=O)=Cc1ccccc1` here
RESULT: f

QUERY: # fetch the recorded call for `CCCCCCCCCCCCCCCCO` here
RESULT: f

QUERY: # fetch the recorded call for `CCN(CC)CCOc1ccc(C(=C(Cl)c2ccccc2)c2ccccc2)cc1` here
RESULT: f

QUERY: # fetch the recorded call for `CC(C)c1cccc(C(C)C)c1NC(=O)NS(=O)(=O)c1cc(C(C)(C)O)co1` here
RESULT: f

QUERY: # fetch the recorded call for `Cc1cc(SC2=C(O)C[C@@](CCc3ccc(N)cc3)(C(C)C)OC2=O)c(C(C)(C)C)cc1CO` here
RESULT: f

QUERY: # fetch the recorded call for `O=C1CCCCC1` here
RESULT: f
